Recorded measurements of inhibition at 1.25 µM, one per entry
- target: mUSP18 (Mus musculus)
- Construct: (46-368); His-tag (N); made in house
- run_description: High-throughput screening, ISG15ct-RhoMP, single dose 1.25 µM
- Type: biochemical, murine
- stated_conditions: crude in-plate synthesized compound, 1.25 µM assuming full conversion; read-out: %inhibition mUSP18
Respond numerically; units are % and should not be typed.

# count of solved cases: 4
compound	units_text	inhibition at 1.25 µM
N#CN1C[C@H]2C[C@H](NC(=O)CCC3CCCCC3)C[C@H]2C1 [BB07CA48]	%	75
N#CN1CC[C@@H](NC(=O)Cc2csc(-c3cnccn3)n2)C1 [BB01CA92]	%	24.6
Cc1cc(C(=O)N[C@H]2C[C@@H]3CN(C#N)C[C@@H]3C2)ccc1Br [BB07CA28]	%	95
N#CN1CC[C@@H](NC(=O)C(Cc2c[nH]cn2)NS(=O)(=O)c2ccc(Cl)cc2)C1 (some centres unmarked) [BB01CA91]	%	13.4

Proceeding to the next compound to report its inhibition at 1.25 µM.
Incoming: Item N#CN1CC[C@@H](NC(=O)c2nc(N3CCCC3)ncc2Cl)C1 [BB01CA90] : provide inhibition at 1.25 µM
Outgoing: 27.1

----------
Each entry below carries its recorded pIC50.
- target: UCHL3 (Homo sapiens, UniProt P15374)
- Sequence (P15374 1-230): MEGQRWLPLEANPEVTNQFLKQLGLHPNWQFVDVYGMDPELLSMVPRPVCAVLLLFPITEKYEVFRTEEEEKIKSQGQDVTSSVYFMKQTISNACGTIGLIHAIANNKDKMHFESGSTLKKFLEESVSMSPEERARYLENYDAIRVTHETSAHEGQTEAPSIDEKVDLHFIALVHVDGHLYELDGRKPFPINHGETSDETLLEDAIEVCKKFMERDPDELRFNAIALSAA
For clarity, pIC50 is expressed as the negative log10 of concentration in mol/L.

molecule	observed_value
COc1ccccc1-c1cc(C(=O)N[C@@H]2CCN(C#N)C2)n[nH]1 [Compound 2]	3.77

Incoming: Determine its reported pIC50: N#CN1CC[C@@H](NC(=O)c2cc(-c3cccc(Cl)c3)no2)C1 [Compound 1]
Outgoing: 3.64

----------
Each entry below carries its recorded %inh CA + DIC/HOBT.
- target: mUSP18 (Mus musculus, UniProt Q9WTV6)
- Construct: (46-368); His-tag (N); made in house
- Sequence (Q9WTV6 46-368): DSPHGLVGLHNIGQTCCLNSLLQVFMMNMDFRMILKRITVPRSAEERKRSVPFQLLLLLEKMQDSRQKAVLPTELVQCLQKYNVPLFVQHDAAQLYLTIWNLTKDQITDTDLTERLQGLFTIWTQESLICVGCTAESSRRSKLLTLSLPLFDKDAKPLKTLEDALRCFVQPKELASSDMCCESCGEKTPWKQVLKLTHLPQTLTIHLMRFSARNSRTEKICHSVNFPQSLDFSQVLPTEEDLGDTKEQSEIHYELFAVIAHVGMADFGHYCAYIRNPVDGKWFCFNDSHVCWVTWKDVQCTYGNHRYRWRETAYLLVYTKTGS
- run_description: High-throughput screening, ISG15ct-RhoMP, single dose 1.25 µM
- Format: biochemical, murine
- stated_conditions: mUSP18 %inhibition; carboxylic acid (CA) with coupling reagents DIC/HOBT
Respond numerically; units are % and should not be typed.

compound	observed_value
O=C(O)c1cnccn1 [CA015]	-15.60

Incoming: Return value of %inh CA + DIC/HOBT for input CN1C(=O)C[C@@H](C(=O)O)[C@@H]1c1cccnc1 [CA306] , no commentary.
Outgoing: -6.80

Incoming: Look up %inh CA + DIC/HOBT of Cc1ccc(Br)c(C(=O)O)c1 [CA033] and report it.
Outgoing: -9.49

Incoming: Determine from records and report %inh CA + DIC/HOBT for Cc1ccc(Br)c(C(=O)O)c1 [CA053]
Outgoing: -15.25

Incoming: Fill in %inh CA + DIC/HOBT for record O=C(O)c1cnccn1 [CA081]
Outgoing: -13.28

Incoming: Give %inh CA + DIC/HOBT for the following compound: CN1C(=O)C[C@@H](C(=O)O)[C@@H]1c1cccnc1 [CA042]
Outgoing: -12.12

----------
- target: mUSP18 (Mus musculus, UniProt Q9WTV6)
- Construct: (46-368); His-tag (N); made in house
- run_description: High-throughput screening, ISG15ct-RhoMP, single dose 1.25 µM
- Format: biochemical, murine
- stated_conditions: mUSP18 %inhibition; carboxylic acid (CA) building block alone; read-out: %inh CA only
test_readout: inhibition at 1.25 µM (%)
// note: answer is a bare numeric in %

The cases that follow already have their inhibition at 1.25 µM on record.
compound	test_readout	observed_value
O=C(O)C1CCN(C(=O)CCOc2ccccc2)CC1 [CA197]	inhibition at 1.25 µM	4.78
O=C(O)c1cn(C2CCC2)nn1 [CA114]	inhibition at 1.25 µM	23.9
Cn1c(=O)c2c(ncn2CC(=O)O)n(C)c1=O [CA018]	inhibition at 1.25 µM	-2.06
O=C(O)Cc1ccc(NS(=O)(=O)c2c(Cl)cccc2Cl)cc1 [CA141]	inhibition at 1.25 µM	9.99
CCCC(=O)O [CA007]	inhibition at 1.25 µM	-4.83

# next compound below
Incoming: Fill in reported inhibition at 1.25 µM for this entry: O=C(O)c1sccc1-n1cccc1 [CA392]
Outgoing: 71.2

----------
- target: mUSP18 (Mus musculus)
- Construct: (46-368); His-tag (N); made in house
- run_description: High-throughput screening, ISG15ct-RhoMP, single dose 1.25 µM
- Format: biochemical, murine
- stated_conditions: mUSP18 %inhibition; carboxylic acid (CA) with coupling reagents DIC/HOBT; read-out: %inh CA + DIC/HOBT
test_readout: inhibition at 1.25 µM (%)
Report the figure in % without appending any unit label.

Incoming: Report value only: inhibition at 1.25 µM, mUSP18 (Mus musculus), O=C(O)Cc1ccncc1 [CA017]
Outgoing: -13

Incoming: Given O=C(O)C1CN(S(=O)(=O)C2CC2)C1 [CA258] , report its inhibition at 1.25 µM on mUSP18 (Mus musculus).
Outgoing: 2.25

Incoming: Recall the reported inhibition at 1.25 µM of O=C(O)c1cc(-c2ccco2)on1 [CA223] on mUSP18 (Mus musculus) and write it down.
Outgoing: 4.1

Incoming: Report inhibition at 1.25 µM under test system mUSP18 (Mus musculus) for O=C(O)c1cccc(-c2ncn[nH]2)c1 [CA215] .
Outgoing: 1.55

Incoming: Tell me its inhibition at 1.25 µM on mUSP18 (Mus musculus): COc1ccc(C(=O)O)cc1S(=O)(=O)N1CCCCCC1 [CA217]
Outgoing: 0.58

Incoming: Give reported inhibition at 1.25 µM for O=C(O)Cc1ccccc1[N+](=O)[O-] [CA013] (mUSP18 (Mus musculus))
Outgoing: -7.61

----------
- target: mUSP18 (Mus musculus)
- Construct: (46-368); His-tag (N); made in house
- run_description: High-throughput screening, ISG15ct-RhoMP, single dose 1.25 µM
- Assay type: biochemical, murine
- stated_conditions: mUSP18 %inhibition; carboxylic acid (CA) building block alone; read-out: %inh CA only
Below: a set of entries, each annotated with reported inhibition at 1.25 µM.
Response body: numeric value in %, unit text excluded.

compound	inhibition at 1.25 µM (%)
O=C(O)CC1CCN(c2ccc(Cl)nn2)CC1 [CA453]	-0.89
O=C(O)c1ccc(S(=O)(=O)N2CCOCC2)cc1 [CA182]	2.85
O=C(O)c1cc(-c2ccc(Cl)cc2)oc1C(F)(F)F [CA133]	11
O=C(O)c1ccc(OCc2ccncc2)cc1 [CA105]	12.9
CN1C(=O)CCC(C(=O)O)C1c1cccs1 (stereo not drawn) [CA339]	2.79

Incoming: Look up and state reported inhibition at 1.25 µM for O=C(O)C1CCN(C(=O)N2CCOCC2)CC1 [CA444]
Outgoing: -6.76

Incoming: Tell us which inhibition at 1.25 µM value is on record for O=C(O)c1ccnc(C2CC2)n1 [CA347]
Outgoing: -0.62

Incoming: Output measured inhibition at 1.25 µM for this item: O=C(O)c1cnn(CC2CCC2)c1 [CA454]
Outgoing: -1.23

Incoming: Supply reported inhibition at 1.25 µM belonging to this compound: O=C(O)c1cc(S(=O)(=O)NCCCN2CCCC2=O)ccc1Cl [CA230]
Outgoing: 4.86

Incoming: Tell me measured inhibition at 1.25 µM for O=C(O)c1ccnc(N2CCOCC2)n1 [CA264] please.
Outgoing: 8.23

Incoming: Indicate its recorded inhibition at 1.25 µM; the compound in question is O=C(O)c1sccc1S(=O)(=O)NCc1ccco1 [CA320]
Outgoing: -2.92

Incoming: Note inhibition at 1.25 µM for the compound shown: Cc1nc(-c2cccnc2)sc1C(=O)O [CA212]
Outgoing: 10.5

----------
- target: SENP1 (Homo sapiens, UniProt Q9P0U3)
- Sequence (Q9P0U3 419-644): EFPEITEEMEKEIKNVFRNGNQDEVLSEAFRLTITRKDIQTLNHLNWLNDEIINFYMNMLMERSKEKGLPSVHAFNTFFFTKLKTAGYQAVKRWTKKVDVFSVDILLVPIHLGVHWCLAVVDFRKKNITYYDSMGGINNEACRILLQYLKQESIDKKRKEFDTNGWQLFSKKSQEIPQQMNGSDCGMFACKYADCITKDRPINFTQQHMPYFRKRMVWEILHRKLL
- run_description: High-throughput screening, single dose 1.25 µM
- Assay type: biochemical
- stated_conditions: individual amine building block (plate NCN-5); read-out: BB %inhibition SENP1
Collected inhibition at 1.25 µM values appear next to each entry.
Write your answer as a measured quantity: the number, then the unit.

molecule	inhibition at 1.25 µM
N#CN1CC[C@@H](N)C1	1.3%
N#CN1CC[C@H](CN)C1	-12.3%

Incoming: Give recorded inhibition at 1.25 µM. `N#CN1C[C@@H](F)[C@@H](N)C1`
Outgoing: 0.022%

Incoming: Note down inhibition at 1.25 µM recorded for `N#CN1CCC(n2cc(N)cn2)CC1`
Outgoing: 4%

Incoming: Answer with reported inhibition at 1.25 µM of `N#CN1C[C@@H]2C[C@H]1CN2`
Outgoing: -9.2%

Incoming: Give recorded inhibition at 1.25 µM. `N#CN1CC[C@H](C(=O)Nc2nc3c(s2)CNCC3)C1`
Outgoing: -5.4%

Incoming: For the molecule `N#CN1CCC[C@@H](N)C1` , give its reported inhibition at 1.25 µM.
Outgoing: -2.1%

Incoming: Quickly give me recorded inhibition at 1.25 µM for `N#CN1C[C@H](N)[C@@H](O)C1`
Outgoing: 10.1%

Incoming: Return inhibition at 1.25 µM (reported value) for this molecule: `N#CN1CC(N)C1`
Outgoing: -5.2%

Incoming: Return value of inhibition at 1.25 µM for input `N#CN1CCC(N)CC1` , no commentary.
Outgoing: -2.9%

Incoming: Find the measured inhibition at 1.25 µM of `N#CN1C[C@H]2C[C@H](N)C[C@H]2C1` and report it.
Outgoing: -11.7%

Incoming: Report measured inhibition at 1.25 µM; entry is `N#CN1CC[C@H](N)C1`
Outgoing: -1%

Incoming: Respond only with inhibition at 1.25 µM recorded for `N#CN1CC[C@@H](NC(=O)c2ccc(CN)cc2)C1`
Outgoing: -5%

Incoming: Supply measured inhibition at 1.25 µM of `N#CN1CCC[C@H](N)C1` in your reply.
Outgoing: 0.5%

Incoming: Note down inhibition at 1.25 µM recorded for N#CN1CCC2(CCNC2)C1 (stereo not shown)
Outgoing: 8.7%

Incoming: Give inhibition at 1.25 µM for the following molecule: `N#CN1C[C@H]2C[C@@H](N)C[C@H]2C1`
Outgoing: -9%
